Listed next: entries and their corresponding protein stability index.
B1: BCL2L13 (parent)
chain: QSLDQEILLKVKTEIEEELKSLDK

Variants of: B1
Assay Name: protein stability index of a GFP-peptide fusion (GPS, HEK-293T) (PSI 1-6); higher = more stable;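 further: lentivirally expressed fusions sorted by FACS into six bins by GFP to DsRed ratio, PSI derived from sequencing read proportions per bin multiplied by bin number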
Assay Setup: c terminus: a fixed tail appended
Answer with the value's number alone.

# count of solved cases: 8
K24S ... 4.9
V11E ... 5.63
Q1A ... 5.04
E14T ... 4.46
Q5W ... 3.67
L3P ... 4.59
K24Y ... 4.25
E18T ... 3.92

Exercise: Fill in: protein stability index of "E17M" is ___
Key: 4.08

Exercise: Thanks! And "E16K" ?
Key: 4.76

Exercise: Consider next the variant "E14Q" in the same way.
Key: 4.84
